Source of measurements: patent US20110262445A1

- TARGET_UNDER_TEST: T1, human IL-12 (human, UniProt P29460 23-328; P29459 23-219)
- T1 construct: Recombinant (Peprotech); FLAG-tagged IL-12 in the flow cytometry assays, biotinylated in the IL-12Rβ2 assay; also called hIL-12
- T1 sequence 1: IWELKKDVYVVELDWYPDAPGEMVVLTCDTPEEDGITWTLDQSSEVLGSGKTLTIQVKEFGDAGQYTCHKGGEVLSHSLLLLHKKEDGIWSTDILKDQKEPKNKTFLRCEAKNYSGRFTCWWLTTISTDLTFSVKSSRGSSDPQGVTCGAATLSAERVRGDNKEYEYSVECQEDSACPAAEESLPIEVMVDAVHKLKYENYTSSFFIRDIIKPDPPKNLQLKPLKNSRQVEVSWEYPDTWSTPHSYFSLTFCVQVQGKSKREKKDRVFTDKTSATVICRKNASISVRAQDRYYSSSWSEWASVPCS
- T1 sequence 2: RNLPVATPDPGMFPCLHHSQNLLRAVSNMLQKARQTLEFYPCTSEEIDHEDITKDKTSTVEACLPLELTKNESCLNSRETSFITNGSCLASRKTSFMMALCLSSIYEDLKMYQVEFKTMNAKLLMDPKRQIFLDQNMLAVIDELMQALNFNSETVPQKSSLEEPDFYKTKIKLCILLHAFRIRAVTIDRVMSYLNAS
- ASSAY_INFO: ELISA, coated IL-12
- Experimental: IL-12 (Peprotech), IL-23 (Ebioscience™), IL-12p40 (Ebioscience™) or IL-12p80 (Peprotech), was diluted to 1 μg/mL in carbonate coating buffer ([…] pH 9.6) and coated onto a 96 well plate (Nunc™, Maxisorp™) overnight at 4° C. The plate was then washed three times with wash buffer (0.01M PBS pH 7.2, 0.05% Tween-20) and then three times with 0.01M PBS pH 7.2. […] The absorbance of each well was determined at 450 nm (ref. 620 nm).

BINDER	binding result
Antibody 201 (antibody, human IgG1, kappa, V domains shown) VH: QVQLVQSGAEVKKPGASVKVSCKASGYTFTDYYLHWVRQAPGQGLEWMGWIDPENGDTESAPKFQGRVTMTTDTSTSTAYMELRSLRSDDTAVYYCAANKELRYFDVWGQGTMVTVSS VL: EIVMTQSPATLSVSPGERATLSCRASQSISINLHWYQQKPGQAPRLLIYFASQSISGIPARFSGSGSGTEFTLTISSLQSEDFAVYYCQQSNSFPLTFGGGTKVEIKR	binds
Antibody 191 (antibody, human IgG1, kappa, V domains shown) VH: QVQLVQSGAEVKKPGASVKVSCKASGYTFTDYYLHWVRQAPGQGLEWMGWIDPENGDTEYAPKFQGRVTMTTDTSTSTAYMELRSLRSDDTAVYYCAANKELRYFDVWGQGTMVTVSS VL: DIQMTQSPSSVSASVGDRVTITCRASQSISINLHWYQQKPGKAPKLLIYFASQSISGVPSRFSGSGSGTDFSLTINSLQTEDFATYYCQQSNSFPLTFGGGTKVEIKR	binds
Antibody 197 (antibody, human IgG1, kappa, V domains shown) VH: QVQLVQSGAEVKKPGASVKVSCKASGYTFTDYYLHWVRQAPGRGLEWMGWIDPENGDTEYAPKFQGRVTMTTDTSTSTAYMELRSLRSDDTAVYYCAANKELRYFDVWGQGTMVTVSS VL: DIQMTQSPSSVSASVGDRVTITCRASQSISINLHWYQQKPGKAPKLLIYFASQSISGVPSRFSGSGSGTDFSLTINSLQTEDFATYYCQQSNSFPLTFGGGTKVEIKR	binds
